pIC50: −log10 of the molar value.
// cross-source set; read-out = pIC50; system = Fibroblast growth factor receptor 4 (Homo sapiens, UniProt P22455)
recorded.metric: pIC50

INSERT INTO results (test_smiles, value_observed) VALUES
  ('COc1cc(OC)c(F)c(COc2ccc(NC(=O)N3CCCc4ccc(C=O)nc43)nc2)c1F', 8.23);

[a] COCCNc1cc(NC(=O)N2c3nc(C=O)ccc3C3(OCCN4CCCC4)CC2C3)ncc1C#N
[b] COc1cc(OC)c(F)c(C#Cc2cnc(NC(=O)N3CCCc4ccc(C=O)nc43)nc2)c1F
[c] C=CC(=O)N[C@H]1COC[C@H]1Nc1ncc2cc(-c3c(Cl)c(OC)cc(OC)c3Cl)nc(NCC(CO)(CO)CO)c2n1
Sort by pIC50, descending. Answer format: the labels, in the requested order.
a, b, c
(a: 8.96, b: 8.60, c: 8.23)

###

pIC50: −log10 of the molar value.
// read-out pIC50, gathered for UniProt P22455 from published studies
recorded.metric: pIC50

Below, each entry is followed by its recorded pIC50 result.
INSERT INTO measurements (molecule, value_observed) VALUES
  ('CN1CCN(Cc2ccc(N(C)C(=O)Nc3cc(NC4CCC(F)(F)C4)c(C#N)cn3)nc2C=O)C(=O)C1 (centres unmarked)', 8.64),
  ('CCS(=O)(=O)NC12CC(C1)N(C(=O)Nc1cc(NCCOC)c(C#N)cn1)c1nc(C=O)ccc12', 8.64);

[I] COCCNc1cc(NC(=O)N2c3nc(C=O)c(CN4CCOCC4=O)cc3C3(F)CC2C3)ncc1C#N
[II] COCCNc1cc(NC(=O)N2c3nc(C=O)c(CN4CCN(C)CC4=O)cc3C3CC2C3)ncc1C#N
[III] COc1cc(OC)c(F)c(Cc2c[nH]c3ncc(-c4cn(C5CCNCC5)nc4C)cc23)c1F
Exam item: list the entries in increasing order of pIC50. To answer, write out the labels according to the requested order.
III, I, II

[1] C=CC(=O)N1CC[C@@H](c2cc(-c3cc4c(F)c(OC)cc(OC)c4s3)c3c(N)ncnn23)C1
[2] C=CC(=O)N[C@H]1CCOC[C@H]1Nc1ncc2cc(-c3c(F)c(OC)cc(OC)c3F)nc(N3CCC(OC)C3)c2n1 (some centres unmarked)
Endpoint returns the identifier whose pIC50 is numerically larger, either 1 or 2 . Mark your selection by writing its label.
2

###

This section presents IC50 values reported for UniProt P22455 in the literature.
recorded.metric: IC50 (nM)

[A] C=CC(=O)N1C[C@@H](Nc2ncc3cc(-c4c(Cl)c(OC)cc(OC)c4Cl)ccc3n2)C[C@H]1C
[B] COCCNc1cc(NC(=O)N(C)c2ccc(-c3cnn(C)c3)c(C=O)n2)ncc1C#N
[C] C=CC(=O)N[C@H]1COC[C@H]1Nc1ncc2cc(-c3c(Cl)c(OC)cc(OC)c3Cl)nc(NCC(F)(F)F)c2n1
// ascending sort on IC50 for the entries above Labels, ranked as asked.
B, C, A

###

// note: pIC50 values for Fibroblast growth factor receptor 4 (Homo sapiens) were reported in different studies
pIC50: −log10 of the molar value.

INSERT INTO assay_data (test_smiles, value_observed) VALUES
  ('C=CC(=O)Nc1cc(N2CCC(N3CCN(C)CC3)CC2)c(C)cc1Nc1ncc(C#N)c(Nc2ccccc2OC(C)C)n1', '7.30 to 8.00'),
  ('C=CC(=O)Nc1cc(N2CCC(N3CCN(C)CC3)CC2)ccc1Nc1cc(Nc2ccccc2OC(C)C)c(C#N)cn1', '7.30 to 8.00'),
  ('C=CC(=O)N1C[C@@H](O)[C@H](Nc2ncc3cc(-c4c(Cl)c(OC)cc(OC)c4Cl)ccc3n2)C1', 6.50),
  ('C=CC(=O)Nc1cc(N2CCC(N(C)CCN(C)C)CC2)ccc1Nc1ncc(C#N)c(Nc2ccccc2OC(C)C)n1', '7.30 to 8.00'),
  ('C=CC(=O)N1CC=C(c2cc3c(Oc4ccc(NC(=O)NC5CC5)cc4)ccnc3cc2OC)CC1', '> 8.30'),
  ('C=CC(=O)N[C@H]1CCCC[C@@H]1Nc1ncc2cc(-c3c(Cl)c(OC)cc(OC)c3Cl)ccc2n1', '< 6.00');

Please find the next compound below.
# lookup: `COCCOc1cc(NC(=O)N(C)c2ccc(CN3CCN(C)CC3=O)c(C=O)n2)ncc1C#N` on Fibroblast growth factor receptor 4 (Homo sapiens), pIC50 = 7.77

###

pIC50 values for Fibroblast growth factor receptor 4 (Homo sapiens), compiled from several publications.
pIC50: −log10 of the molar value.
recorded.metric: pIC50

Please review the entries below; each comes with its answer.
INSERT INTO assay_data (compound, recorded_metric, value_observed) VALUES
  ('CCC(=O)N1CC[C@@H](c2cc(-c3cc4cc(C)cc(OC)c4s3)c3c(N)ncnn23)C1', 'pIC50', 8.38),
  ('C=CC(=O)N[C@H]1COC[C@H]1Nc1ncc2cc(-c3c(Cl)c(OC)cc(OC)c3Cl)nc(N3CCC(C)(O)C3)c2n1 (stereo partly shown)', 'pIC50', 8.54),
  ('C=CC(=O)N[C@H]1COC[C@H]1Nc1ncc2cc(-c3c(Cl)c(OC)cc(OC)c3Cl)nc(NCCCCN(C)C)c2n1', 'pIC50', 7.33);

[1] C=CC(=O)N1C[C@@H](Nc2ncc3cc(-c4c(Cl)c(OC)cc(OC)c4Cl)ccc3n2)C2(CC2)C1 (stereo in doubt)
[2] C=CC(=O)N[C@H]1COC[C@H]1Nc1ncc2cc(-c3c(Cl)c(OC)cc(OC)c3Cl)nc(C)c2n1
// compare measured pIC50 between 1 and 2 ; output the lower one Give the label of your selection.
1

###

pIC50: −log10 of the molar value.
Collected set of pIC50 measured with Fibroblast growth factor receptor 4 (Homo sapiens, UniProt P22455) across studies.
recorded.metric: pIC50

INSERT INTO assay_data (molecule, target, value_observed) VALUES
  ('COc1ncccc1CNc1cc(NC(=O)N2CCCc3cc(CN4CCOCC4=O)c(C=O)nc32)ncc1C#N', 'Fibroblast growth factor receptor 4 (Homo sapiens, UniProt P22455)', 8.12),
  ('C=CC(=O)N[C@H]1CCOC[C@H]1Nc1ncc2cc(-c3c(Cl)c(OC)cc(OC)c3Cl)nc(N3CC(OC)C3)c2n1', 'Fibroblast growth factor receptor 4 (Homo sapiens, UniProt P22455)', 8.07);

[I] CC#CC(=O)N1CCC(c2c(COC)c(-c3cc4cc(C)cc(OC)c4s3)c3c(N)ncnn23)C1 (stereo not shown)
[II] COC[C@@H](C)Oc1cc(NC(=O)N2CCCc3cc(CN4CCOC4=S)c(C=O)nc32)ncc1C#N
[III] C=CC(=O)N1C[C@@H](Nc2ncc3cc(-c4c(Cl)c(OC)cc(OC)c4Cl)ccc3n2)C[C@H]1C(=O)N(C)C
# desc sort on pIC50 across 3 molecules Reply with the labels, ordered as the question asks.
I, II, III

###

Recorded pIC50 for compounds tested on UniProt P22455, drawn from a number of studies.
pIC50: −log10 of the molar value.
recorded.metric: pIC50

[a] CN(Cc1cc2c(nc1C=O)N(C(=O)Nc1cc(N[C@H]3CCOC3)c(C#N)cn1)CCC2)C(=O)C1CCOCC1
[b] C=CC(=O)N[C@H]1COC[C@H]1Nc1ncc2cc(-c3c(F)c(OC)cc(OC)c3F)nc(NCC3CC3)c2n1
[c] C=CC(=O)N1CCC(c2c(COC)c(-c3cc4cc(C)cc(OC)c4s3)c3c(N)ncnn23)C1 (single isomer, unassigned)
[d] CCN1CCC(n2cc(-c3cnc4[nH]cc(Cc5c(F)ccc(OC)c5F)c4c3)c(C#N)n2)CC1
Quick favor: sort the compounds up above by pIC50, largest first. Record the ranking as a list of labels in the requested order.
c, a, b, d
(c: 9.70, a: 8.71, b: 7.96, d: 6.45)

###

UniProt P22455 IC50, compiled from various sources.
recorded.metric: IC50 (µM)

Check out these entries, answers already filled in.
INSERT INTO results (compound, recorded_metric, value_observed) VALUES
  ('N#Cc1cnc(NC(=O)N2CCCc3cc(CN4CCOCC4=O)c(C=O)nc32)cc1NCCN1CCCC1', 'IC50', 0.0029),
  ('C=CC(=O)N1C[C@@H](Nc2ncc3cc(-c4c(Cl)c(OC)cc(OC)c4Cl)ccc3n2)C[C@H]1C(C)(C)O (stereo in doubt)', 'IC50', 0.103),
  ('C=CC(=O)N[C@H]1COC[C@H]1Nc1cc2c(NCC3CC3)nc(-c3c(Cl)c(OC)cc(OC)c3Cl)cc2cn1', 'IC50', 0.022),
  ('C=CC(=O)N[C@H]1COC[C@H]1Nc1ncc2cc(-c3c(F)c(OC)cc(OC)c3F)nc(N3CCC(OC)C3)c2n1 (some centres unmarked)', 'IC50', 0.0065);

[1] COC1CC(Nc2cc(NC(=O)N(C)c3ccc(CN4CCN(C)CC4=O)c(C=O)n3)ncc2C#N)C1 (centres unmarked)
[2] C=CC(=O)N[C@H]1COC[C@H]1Nc1ncc(/C=C(\F)c2c(Cl)c(OC)cc(OC)c2Cl)cn1
Look at 1 and 2 . Which one has the lower recorded IC50 number? Respond with the label that goes with your answer.
1
